tested on: INS-1E rat beta cells, no cytokines, CellTiter-Glo ATP, 48 h; assay: cytokine-free beta-cell viability effect – INS-1E rat cells, ATP luminescence, cherry pick, counter-screen for beta-cell apoptosis protection project, dose response (AID 463229)
Measured AC50, listed per entry.

Any idea what its AC50 is? The compound is "Cn1nc(-c2ccccn2)nc2c(=O)n(C)c(=O)nc1-2" 3.1 µM

Quick check: AC50 of "CN1/C(=C\C(=S)Nc2ccccc2)C(C)(C)c2ccccc21" ? 10.1 µM

What value of AC50 has been recorded for this entry: "Cc1onc(-c2ccccc2)c1C(=O)NC(=S)NNC(=O)c1ccc(O)cc1O" 0.657 µM

Request the reported AC50 associated with "O=C(C[C@@H]1C/C=C/CC[C@H](Cc2ccc(F)cc2)C(=O)OC[C@@H](Cc2ccccc2)NC1=O)N[C@H](CO)Cc1ccccc1" 7.82 µM

# input compound: "O=C(Nc1ccc(OCC(=O)N2CCC(Cc3ccccc3)CC2)cc1)c1ccco1" ; wanted: its AC50 7 µM

Entry "CCOc1ccc(-n2c(-c3ccccc3)c[n+]3c2CCC3)cc1" has what AC50? 1.53 µM

// lookup AC50 for "CC(C)(C)c1cnnn1-c1ccc(/C=N/Nc2ccc([N+](=O)[O-])cc2)cc1" 7.77 µM

Fill blank: measured AC50 of the compound "C=CCc1cccc(/C=N/NC(=O)CCC(=O)Nc2ccc(F)cc2)c1O" is ____. 10.2 µM

For N#CC1=C(N)N2C(=C(C#N)C1c1ccc(Br)cc1)Nc1ccccc12 (stereo not drawn) , what is its reported AC50? 1.87 µM

Field request: AC50 | item: "CN1/C(=C\C(=S)NC(=O)c2cccc(Br)c2)C(C)(C)c2ccccc21" 3.93 µM

# input compound: "C/C(=N/NC(=O)CN(c1ccccc1)S(=O)(=O)c1ccccc1)c1ccccc1O" ; wanted: its AC50 10.2 µM

# lookup: AC50 of "O=C(Nc1cccnc1)c1cccs1" 1.86 µM

Entry "CCCOCc1ccc(O)c2ncccc12" : reported AC50 = ? 7.79 µM

Need AC50 of "CCCCCCCCCCCCCCCC[N+](C)(C)CC" , thanks. 6.57 µM

Fill in the blank: the reported AC50 of "CCCCCc1ccc(OCCCC[n+]2ccccc2)c(CCCCC)c1" is ____. 3.3 µM

Fill blank: measured AC50 of the compound "Cc1cccc(NC(=O)/C=C/c2ccc([N+](=O)[O-])s2)c1" is ____. 8.56 µM

Request the reported AC50 associated with "CCCOc1ccc(Br)cc1CSC(=N)N" 8.01 µM

Which measured AC50 value corresponds to "CCOC(=O)c1c(C)[nH]c(C(=O)OCC(=O)NC(C)(C)C)c1C" ? 13.1 µM

Requested field: AC50. Item: "CCCCCc1ccc(-c2cn(CN3C(=O)c4ccccc4C3=O)nn2)cc1" 1.23 µM

What AC50 value was documented for this compound, "COc1ccc(C(=O)N/N=C(\C)c2ccccn2)cc1OC" ? 2.54 µM

---

Reported AC50 values for a set of compounds
tested on: INS-1E rat beta cells, no cytokines, CellTiter-Glo ATP, 48 h; assay: cytokine-free beta-cell viability effect – INS-1E rat cells, ATP luminescence, cherry pick, counter-screen for beta-cell apoptosis protection project, dose response (AID 463229)

As a guide, the following entries are already answered.
>  <Compound>
O=S(=O)(c1ccc(Cl)cc1)N1CCN(Cc2ccc(O)c3ncccc23)CC1

>  <AC50>
7.13 µM

$$$$
>  <Compound>
COc1ccc(C)cc1NS(=O)(=O)c1ccc(NC(=O)CN(c2cc([N+](=O)[O-])ccc2C)S(C)(=O)=O)cc1

>  <AC50>
1.11 µM

$$$$
>  <Compound>
CCN(CC)c1ccc(/C=N/N(c2ccccc2)c2ccccc2)c(O)c1

>  <AC50>
4.58 µM

$$$$
>  <Compound>
COc1ccc(C(=O)C/C(=C\C(=O)c2ccc(C)cc2)c2ccccc2)cc1

>  <AC50>
7.67 µM

$$$$
>  <Compound>
Fc1ccc(-c2cc(-c3nnc4n3CCCCC4)c3ccccc3n2)cc1

>  <AC50>
8.53 µM

$$$$
>  <Compound>
CC(=O)OC1COC(OC2C(O)C(C)OC(OC3C(OC4CCC5(C)C(CCC6(C)C5CC=C5C7CC(C)(C)CCC7(C(=O)O)CCC56C)C4(C)CO)OCC(O)C3O)C2O)C(O)C1OC(C)=O (stereo not drawn)

>  <AC50>
7.09 µM

$$$$
>  <Compound>
Clc1ccc(C(c2ccc(Cl)cc2)n2cc[n+](CC(OCc3ccc(Cl)cc3Cl)c3ccc(Cl)cc3Cl)c2)cc1 (stereo not drawn)

>  <AC50>
3.69 µM

$$$$

Now let's try a different one.
# AC50 lookup, item "O=C(Nc1ccc(OC(F)F)c(Cl)c1)C(c1ccccc1)c1ccccc1" 13 µM

This collection of values is drawn from PubChem BioAssay AID463229.
